Values were extracted from patent US20200283507A1.

# target or system: T1, Hu/NoV/GII.4/MD2004/2004/U.S. VLP (human norovirus GII.4)
# T1 construct: mature; baculovirus VLP; VP2 may be present; also called MD2004 VLP
# protocol notes: VLP ELISA
measured quantity: minimum concentration of VHH able to recognize 100 ng of VLP (ng/well)
The answer is to be given in ng/well; state only the numeric part.

Notebook: VHH 5.4 (VHH, llama VHH, MD2004 library; pHEN6, C-terminal His6 tag; also called clone 5.4) VHH: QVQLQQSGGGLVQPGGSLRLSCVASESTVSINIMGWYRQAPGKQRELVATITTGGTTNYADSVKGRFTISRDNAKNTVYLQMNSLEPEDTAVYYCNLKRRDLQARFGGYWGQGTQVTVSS , minimum concentration of VHH able to recognize 100 ng of VLP read as 1

Notebook: VHH 3.2 (VHH, llama VHH, MD2004 library; pHEN6, C-terminal His6 tag; also called clone 3.2) VHH: QVQLQESGGGLVQPGGSLRLSCAASESTPSINTMGWYRQAPGKERELVATITSGGMTNYADSVKGRFTISRDNGKNTVYLQMNSLEPGDTAVYYCNLKRRDLQARFGGYWGQGTQVTVSS , minimum concentration of VHH able to recognize 100 ng of VLP read as 2

Notebook: VHH 7.5 (VHH, llama VHH, MD2004 library; pHEN6, C-terminal His6 tag; also called clone 7.5) VHH: QVKLQESGGGLVQAGESLRLSCAASGSNFSINGVGWYRQAPGKQRELVAGITNGGYTSYADSVKGRFTISTDNAKNTVYLQMNSLRPEDTAVYYCNANFQIHRSGADYVRNYWGQGTQVTVSA , minimum concentration of VHH able to recognize 100 ng of VLP read as 0.5

Notebook: VHH 4.1 (VHH, llama VHH, MD2004 library; pHEN6, C-terminal His6 tag; also called clone 4.1) VHH: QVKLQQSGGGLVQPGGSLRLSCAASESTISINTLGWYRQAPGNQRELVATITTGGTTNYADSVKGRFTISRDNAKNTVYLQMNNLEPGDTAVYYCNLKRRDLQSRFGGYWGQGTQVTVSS , minimum concentration of VHH able to recognize 100 ng of VLP read as 2

Notebook: VHH 19 (VHH, MD2004 library, subtractive biopanning; His6 tag; also called 19.1; clone 19) VHH: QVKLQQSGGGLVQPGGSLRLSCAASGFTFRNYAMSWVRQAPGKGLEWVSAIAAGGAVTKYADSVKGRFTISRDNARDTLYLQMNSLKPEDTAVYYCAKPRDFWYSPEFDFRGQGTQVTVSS , minimum concentration of VHH able to recognize 100 ng of VLP read as 2

Notebook: VHH 1 (VHH, llama VHH, MD2004 (GII.4) library; pHEN6, C-terminal His6 tag; also called 1.1; clone 1) VHH: QVQLQQSGGGLVQAGGSLRLSCAASGLAFSSYAITWLRQAPGTEREFVALISGSGSSTYYADSVKGRFTISRNNAKNTVYLQMNSLKPEDTAVYYCTASEFLLHPPPPNQKYDYWGQGTQVTVSS , minimum concentration of VHH able to recognize 100 ng of VLP read as 0.5

Notebook: VHH 16 (VHH, MD2004 library, subtractive biopanning; His6 tag; also called 16.1; clone 16) VHH: QVKLQQSGGGLVQPGGSLRLTCAASGFPFSTYAIRWVRRPPGKGLEWVSTIHPDFTTNYADSVSRRFTISRDNAKNTVYLQMNSLKPEDTAVYYCSRGVSGERGQGTQVTVSS , minimum concentration of VHH able to recognize 100 ng of VLP read as 0.5

Notebook: VHH 2.1 (VHH, llama VHH, MD2004 library; pHEN6, C-terminal His6 tag; also called clone 2.1) VHH: QVQLQESGGGLVQAGGSLRLSCAASGLTFSSYAMGWFHQAPGKEREFVAAINWSGRDTYYADSVKGRFTISRDNRKNTVYLQMNSLKPEDTAVYYCAAAEFFSSGDPLPGMDYWGKGTLVTVSS , minimum concentration of VHH able to recognize 100 ng of VLP read as 0.5
